Attribution: patent US20240043504A1

Target: SARS-CoV-2 RBD extracellular domain expressed with a C-terminal mouse IgG2a (SARS-COV-2 RBD-mFc) (SARS-CoV-2)
Readings of Kd for the listed binders

Worked set:
{"Binder": "mAb10986 (antibody, V domains shown) VH: EVQLVESGGGLVQPGGSLRLSCAASEFTVSSNYMSWVRQAPGKGLEWVSVIYSGGSTFYADSVKGRFTISRDNSKNTLYLQMNSLRAEDTAVYYCARALPYGDLHFDYWGQGTLVTVSS VL: QSVLTQPPSVSGAPGQRVTISCTGSSSNIGTGYDVHWYQQLPGTAPKLLIYGNTNRPSGVPDRFSGSKSGTSASLAITGLQAEDEADYYCQSYDSSLSDSYVFGTGTKVTVLG", "Result": "≤ 0.0158 nM"}
{"Binder": "mAb10921 (antibody, V domains shown) VH: EVQLVESGGGLVQPGGSLRLSCAASGITVSSNYMSWVRQAPGKGLEWVSVIYSGGSTFYADSVKGRFTISRHNSKNTLYLQMNSLRAEDTAVYYCARERNFDAFDIWGQGTMVTVSS VL: DIQMTQSPSSVSASVGDRVTITCRASQGISSWLAWYQQKPGKAPKLLIYAASSLQSGVPSRFSGSGSGTDFTLTISSLQPEDFATYYCQQANSFPLFTFGPGTKVDIKR", "Result": "≤ 0.0375 nM"}

Proceeding to the next binder to report its Kd.
QUERY: So what does the record say about Kd for mAb10967 (antibody, V domains shown) VH: EVQLVESGGGLVQPGGSLRLSCAASGFTVSSNYMSWVRQAPGKGLEWVSVIYPGGSTFYADSVKGRFTISRDNSKNTLYLQMNSLRAEDTAVYYCARDQRDFAWGQGTLVTVSS VL: DIQMTQSPSSLSASVGDRVTITCQASQDISNYLNWYQQKPGKAPKLLIYDASNLETGVPSRFSGSGSGTDFTFTISGLQPEDIATYYCQQYDNLPPTFGQGTRLEIKR ?
RESULT: ≤ 0.0251 nM
